- Tested on: MDA-MB-231
- method_notes: NCI tumour cell line growth inhibition, 48 h
Active and inactive are the calls of the source. Cut-off read from the data, not from the text of the source: active = GI50 up to about 1.1 µM and inactive = higher.
# Lookup of reported GI50 keyed by entry

{"columns": ["compound", "target_of_assay", "GI50"],
 "data": [
  ["C=C(C)[C@@H]1CCC2=C[C@@H](OC2=O)[C@@H](C(=C)C)C2=CC(C(=O)O)=C(C1)O2", "MDA-MB-231", "> 100 µM (inactive)"],
  ["CNC(=O)c1ccccc1[S+]1c2cccc3cccc(c23)C(=O)N1C (stereo not drawn)", "MDA-MB-231", "> 100 µM (inactive)"],
  ["CN1CCC2(CC1)C(=O)N(NC(N)=O)C(=O)C2c1ccccc1 (stereo not drawn)", "MDA-MB-231", "> 100 µM (inactive)"],
  ["CC(C)(CO)NC(=O)Nc1c(C(F)(F)F)cc(-c2ccccc2)[nH]c1=O", "MDA-MB-231", "> 100 µM (inactive)"],
  ["CC1=NNC(=O)C1C1CC(c2c[nH]c3ccccc23)=NN=C1Cl (stereo not drawn)", "MDA-MB-231", "46.6 µM (inactive)"],
  ["CC(C)CC(N)C(=O)O (stereo not drawn)", "MDA-MB-231", "> 100 µM (inactive)"],
  ["COc1ccc(/C=C2\\CCC(C)C3=C(c4ccc(OC)c(OC)c4)C(C#N)=C(N)OC32)cc1OC (stereo not drawn)", "MDA-MB-231", "2.95 µM (inactive)"],
  ["NC(Cc1ccccc1CP(=O)(O)O)C(=O)O (stereo not drawn)", "MDA-MB-231", "> 100 µM (inactive)"],
  ["CN(C)CCSS(=O)(=O)O", "MDA-MB-231", "> 100 µM (inactive)"],
  ["O=C(O)c1nc2ccc(C(F)(F)F)cc2nc1NCc1ccc(Cl)c(Cl)c1", "MDA-MB-231", "16.8 µM (inactive)"],
  ["CCCN1C(=O)CC(C)N(Cc2ccccc2Cl)C1=S (stereo not drawn)", "MDA-MB-231", "28.7 µM (inactive)"],
  ["c1ccc([B-]2(c3ccccc3)NCCCO2)cc1", "MDA-MB-231", "42.5 µM (inactive)"],
  ["Cc1ccc(/N=C2/C(c3ccccc3)=C(SC3=C(c4ccccc4)/C(=N/c4ccc(C)cc4)c4ccccc43)c3ccccc32)cc1", "MDA-MB-231", "12.6 µM (inactive)"],
  ["O=C(O)c1ccccc1-c1ccccc1C(=O)c1ccccc1", "MDA-MB-231", "> 100 µM (inactive)"],
  ["c1ccc2[nH]c(C3CCCCO3)nc2c1 (stereo not drawn)", "MDA-MB-231", "> 100 µM (inactive)"],
  ["CCOC(=O)c1cn(CC)c2cc3c(cc2c1=O)CCS3(=O)=O", "MDA-MB-231", "> 100 µM (inactive)"],
  ["CCOC(=O)C(=O)CC(=O)C1=C(c2ccccc2OC)CC(c2cccs2)=CC1=O", "MDA-MB-231", "93.3 µM (inactive)"],
  ["COC(=O)C(CCSc1ccccc1)C(=O)OC", "MDA-MB-231", "> 100 µM (inactive)"],
  ["Nc1nc2ccc(OCC(O)CN3CCCCC3)cc2[n+]([O-])n1 (stereo not drawn)", "MDA-MB-231", "> 100 µM (inactive)"],
  ["Cc1n(-c2ccccc2)c2c([n+]1Cc1ccc([N+](=O)[O-])cc1)C(=O)c1ccccc1C2=O", "MDA-MB-231", "1.59 µM (inactive)"],
  ["CC1(C)CC(=O)c2c([nH]c(=S)c(C#N)c2-c2ccc(Br)cc2)C1", "MDA-MB-231", "92.5 µM (inactive)"],
  ["CC(C)C1/C(=N/O)CC(c2ccccc2)N(N=O)C1c1ccccc1 (stereo not drawn)", "MDA-MB-231", "81.3 µM (inactive)"],
  ["C/C(=C(/C)c1ccc(O)cc1)c1ccc(O)cc1", "MDA-MB-231", "> 100 µM (inactive)"]
]}
